molecular target: transferrin; assay: affinity characterization of the peptide; method not named
Sequence (P02787 20-698): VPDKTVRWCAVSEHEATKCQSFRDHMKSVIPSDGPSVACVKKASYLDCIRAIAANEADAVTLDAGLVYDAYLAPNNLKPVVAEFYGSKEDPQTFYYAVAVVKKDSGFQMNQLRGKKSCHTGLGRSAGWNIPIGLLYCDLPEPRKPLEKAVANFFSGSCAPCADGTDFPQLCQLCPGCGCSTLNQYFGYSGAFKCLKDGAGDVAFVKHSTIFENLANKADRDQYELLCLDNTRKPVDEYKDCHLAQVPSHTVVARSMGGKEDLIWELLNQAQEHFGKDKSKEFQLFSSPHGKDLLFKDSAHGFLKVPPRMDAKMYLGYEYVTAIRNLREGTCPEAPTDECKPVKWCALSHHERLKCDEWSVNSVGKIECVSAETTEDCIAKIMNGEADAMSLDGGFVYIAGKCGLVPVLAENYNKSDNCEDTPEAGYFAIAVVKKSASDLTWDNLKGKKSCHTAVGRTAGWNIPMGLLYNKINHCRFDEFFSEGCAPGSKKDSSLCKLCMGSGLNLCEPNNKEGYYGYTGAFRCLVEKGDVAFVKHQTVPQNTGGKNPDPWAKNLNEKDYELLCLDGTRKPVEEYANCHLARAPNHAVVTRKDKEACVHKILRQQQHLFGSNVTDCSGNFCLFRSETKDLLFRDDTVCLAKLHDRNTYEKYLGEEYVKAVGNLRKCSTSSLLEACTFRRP
pKd: −log10 of the molar value.

| binder | pKd |
| --- | --- |
| AHKVVYQRQIRFAYNRYGSC [TRF26 P6Y+H12F double mutant] | 6.30 |
| AHKVVYQRQIRHAYNRYGSC [TRF26 P6Y point-mutant] | 5.07 |
| AHKVVPQRQIRHAYNRYGSC [TRF26] | 4.07 |
| AHKVVPQRQIRFAYNRYGSC [TRF26 H12F point-mutant] | 5.01 |

Each recorded value in this set is attributed to patent US20120065123A1.
